- target-entity: E3 (His-APC11/APC2-"APC") (Homo sapiens, UniProt Q9NYG5+Q9UJX6)
- Sequence (Q9NYG5 whole entry): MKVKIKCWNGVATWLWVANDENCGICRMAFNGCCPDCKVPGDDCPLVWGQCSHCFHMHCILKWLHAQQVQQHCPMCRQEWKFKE
- Sequence (Q9UJX6 whole entry): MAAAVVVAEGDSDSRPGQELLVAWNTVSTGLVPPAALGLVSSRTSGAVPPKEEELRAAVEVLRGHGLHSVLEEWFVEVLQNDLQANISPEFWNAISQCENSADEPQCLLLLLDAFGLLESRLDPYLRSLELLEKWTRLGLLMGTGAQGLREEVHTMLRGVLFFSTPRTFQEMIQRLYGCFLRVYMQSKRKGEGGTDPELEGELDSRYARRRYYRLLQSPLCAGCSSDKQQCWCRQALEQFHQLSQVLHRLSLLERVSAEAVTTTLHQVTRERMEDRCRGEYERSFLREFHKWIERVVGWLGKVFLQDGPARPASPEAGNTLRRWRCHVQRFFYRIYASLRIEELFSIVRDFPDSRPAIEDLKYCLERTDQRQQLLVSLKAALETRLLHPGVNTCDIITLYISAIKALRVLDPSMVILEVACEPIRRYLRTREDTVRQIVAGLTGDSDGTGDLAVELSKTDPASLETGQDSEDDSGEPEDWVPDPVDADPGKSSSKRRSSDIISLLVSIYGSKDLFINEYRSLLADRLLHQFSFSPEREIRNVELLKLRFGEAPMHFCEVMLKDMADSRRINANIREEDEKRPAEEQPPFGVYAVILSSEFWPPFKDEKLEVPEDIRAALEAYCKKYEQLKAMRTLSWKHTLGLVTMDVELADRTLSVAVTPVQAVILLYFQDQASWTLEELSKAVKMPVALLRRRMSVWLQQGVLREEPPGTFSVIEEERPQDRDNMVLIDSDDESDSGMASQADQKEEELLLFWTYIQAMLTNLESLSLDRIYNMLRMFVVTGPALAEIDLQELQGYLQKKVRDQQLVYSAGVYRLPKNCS
- assay-overview: Plate-based E3 ligase assay (APC FLAG), auto-ubiquitination
- Format: biochemical
- Parameters: key: “+” indicates that the compound exibits inhibitory activity; “−” indicates that low or no inhibitory activity was observed
- assay-setup: 8 concentrations tested
measured-endpoint: APC Flag 8 pt

N=C(NS(=O)(=O)c1cc(Cl)c(Oc2ccc([N+](=O)[O-])cc2Cl)c(Cl)c1)c1ccncc1 +
O=[N+]([O-])c1ccc(Oc2c(Cl)cc(S(=O)(=O)Nc3ccc4cn[nH]c4c3)cc2Cl)c(Cl)c1 −
O=S(=O)(Nc1ccc(Oc2ccc(Cl)cc2)cc1)c1cc(Cl)ccc1Cl +
O=[N+]([O-])c1ccc(Oc2ccc(S(=O)(=O)Nc3ccc(F)cc3C(F)(F)F)cc2Cl)c(C(F)(F)F)c1 +
O=[N+]([O-])c1ccc(Oc2c(Cl)cc(S(=O)(=O)Nc3cc(Cl)ccc3Cl)cc2Cl)c(Cl)c1 +

Tell me reported APC Flag 8 pt for Cc1c(Cl)cccc1S(=O)(=O)Nc1ccc(Oc2ccc(F)cc2)c(Br)c1 , tested with E3 (His-APC11/APC2-"APC") (Homo sapiens, UniProt Q9NYG5+Q9UJX6).
+

# query: APC Flag 8 pt | item Cc1cc(C)c(N(S(=O)(=O)c2cc(Cl)c(Oc3ccc([N+](=O)[O-])cc3Cl)c(Cl)c2)S(=O)(=O)c2cc(Cl)c(Oc3ccc([N+](=O)[O-])cc3Cl)c(Cl)c2)c(C)c1 | system: E3 (His-APC11/APC2-"APC") (Homo sapiens, UniProt Q9NYG5+Q9UJX6)
+

---

- Test system: A549 cells
- assay-overview: Cell proliferation assay, photographic image analysis of proliferation, apoptosis and death (PAD assay), A549
- Format: cell-based
- Design: key: “+” indicates that the compound exibits inhibitory activity; “−” indicates that low or no inhibitory activity was observed
- assay-setup: 6 concentrations tested
measured-endpoint: PAD Assay, A549 6 pt

Below, each entry is followed by its recorded PAD Assay, A549 6 pt result.
compound	PAD Assay, A549 6 pt
O=[N+]([O-])c1ccc(Oc2c(Cl)cc(S(=O)(=O)Nc3ccccc3C(F)(F)F)cc2Cl)c(Cl)c1 [Example 230]	+
Cc1ccc(C(F)(F)F)cc1NS(=O)(=O)c1cc(Cl)c(Oc2ccc([N+](=O)[O-])cc2Cl)c(Cl)c1 [Example 229]	+
Cc1cc2cc(NS(=O)(=O)c3cc(Cl)c(Oc4ccc([N+](=O)[O-])cc4Cl)c(Cl)c3)ccc2[nH]1 [Compound 244]	+
CC(C)(C)c1cc2cc(NS(=O)(=O)c3cc(Cl)c(Oc4ccc([N+](=O)[O-])cc4Cl)c(Cl)c3)ccc2[nH]1 [Example 245]	+
O=[N+]([O-])c1ccc(Oc2c(Cl)cc(S(=O)(=O)Nc3ccc(Cl)cc3[N+](=O)[O-])cc2Cl)c(Cl)c1 [Compound 215]	+

// returns reported PAD Assay, A549 6 pt for input O=S(=O)(Nc1cc(F)ccc1F)c1ccc(Oc2ncc(C(F)(F)F)cc2Cl)cc1 [Example 269]
−

---

- target-entity: E3 (His-APC11/APC2-"APC") (Homo sapiens, UniProt Q9NYG5+Q9UJX6)
- assay-overview: Plate-based E3 ligase assay (APC FLAG), auto-ubiquitination
- Assay type: biochemical
- Design: key: “+” indicates that the compound exibits inhibitory activity; “−” indicates that low or no inhibitory activity was observed
- assay-setup: 8 concentrations tested
measured-endpoint: APC Flag 8 pt

Worked examples, 5 compounds total:
compound	assay-result
O=[N+]([O-])c1ccc(Oc2c(Cl)cc(S(=O)(=O)NCc3ccc(Br)cc3)cc2Cl)c(Cl)c1	−
O=[N+]([O-])c1ccc(Oc2c(Cl)cc(S(=O)(=O)NC(=S)Nc3cccnc3)cc2Cl)c(Cl)c1	−
CS/C(=N\S(=O)(=O)c1cc(Cl)c(Oc2ccc([N+](=O)[O-])cc2Cl)c(Cl)c1)Nc1ccc(Cl)cc1	+
Cc1cc(F)ccc1NS(=O)(=O)c1cc(Cl)c(Oc2ccc([N+](=O)[O-])cc2Cl)c(Cl)c1	+
O=[N+]([O-])c1ccc(F)c(NS(=O)(=O)c2ccc(Oc3ccc([N+](=O)[O-])cc3C(F)(F)F)c(Cl)c2)c1	+

Give E3 (His-APC11/APC2-"APC") (Homo sapiens, UniProt Q9NYG5+Q9UJX6) APC Flag 8 pt for Cc1ccc(NS(=O)(=O)c2cc(Cl)c(Oc3ccc([N+](=O)[O-])cc3Cl)c(Cl)c2)c(Cl)c1
+

Notebook entry, E3 (His-APC11/APC2-"APC") (Homo sapiens, UniProt Q9NYG5+Q9UJX6) assay: APC Flag 8 pt of O=C1CCC(CCCNS(=O)(=O)c2cc(Cl)c(Oc3ccc([N+](=O)[O-])cc3Cl)c(Cl)c2)N1 (centres unmarked) = ?
+

Value wanted: APC Flag 8 pt (E3 (His-APC11/APC2-"APC") (Homo sapiens, UniProt Q9NYG5+Q9UJX6)) of entry N=C(Nc1ccc(Cl)cc1)NS(=O)(=O)c1cc(Cl)c(Oc2ccc([N+](=O)[O-])cc2Cl)c(Cl)c1
+

Requested read-out APC Flag 8 pt, target or system E3 (His-APC11/APC2-"APC") (Homo sapiens, UniProt Q9NYG5+Q9UJX6), entry O=[N+]([O-])c1ccc(Oc2c(Cl)cc(S(=O)(=O)Nc3cccc4c3OC(F)(F)C(F)(F)O4)cc2Cl)c(Cl)c1
+

What APC Flag 8 pt appears in the records for this compound with E3 (His-APC11/APC2-"APC") (Homo sapiens, UniProt Q9NYG5+Q9UJX6)? N=C(NS(=O)(=O)c1cc(Cl)c(Oc2ccc([N+](=O)[O-])cc2)c(Cl)c1)c1ccc(Cl)cc1
−

Request - read-out APC Flag 8 pt | tested on E3 (His-APC11/APC2-"APC") (Homo sapiens, UniProt Q9NYG5+Q9UJX6) | compound Cc1cc2cc(NS(=O)(=O)c3cc(Cl)c(Oc4ccc([N+](=O)[O-])cc4Cl)c(Cl)c3)ccc2[nH]1
+

Param readout= APC Flag 8 pt; system= E3 (His-APC11/APC2-"APC") (Homo sapiens, UniProt Q9NYG5+Q9UJX6); entry= N#Cc1c(Cl)cccc1Oc1ccc(S(=O)(=O)Nc2cccc(Br)c2)cc1 ; returns value.
−

Request body: readout APC Flag 8 pt, system E3 (His-APC11/APC2-"APC") (Homo sapiens, UniProt Q9NYG5+Q9UJX6), query O=[N+]([O-])c1ccc(Oc2c(Cl)cc(S(=O)(=O)Nc3cccc(F)c3F)cc2Cl)c(Cl)c1 . Return the value.
+

Notebook: pull reported APC Flag 8 pt for E3 (His-APC11/APC2-"APC") (Homo sapiens, UniProt Q9NYG5+Q9UJX6), entry O=[N+]([O-])c1ccc(Oc2c(Cl)cc(S(=O)(=O)Nc3cccc4cc[nH]c34)cc2Cl)c(Cl)c1
+
